Attribution: PubChem BioAssay AID1208

# Tested on: rat chronic carcinogenicity bioassay, TD50
# TEST: DSSTox (CPDBAS) Carcinogenic Potency Database Summary Rat Bioassay Results
# CONDITION SET: TD50_Rat_Note: TD50 is harmonic mean of more than one positive test; TargetSites_Rat_Female: mammary gland; skin; stronger effect = lower value
PROPERTY: Potency

Ask: Entry "CCN(Cc1cccc(S(=O)(=O)[O-])c1)c1ccc(C(=C2C=CC(=[N+](C)C)C=C2)c2ccc(N(CC)Cc3cccc(S(=O)(=O)O)c3)cc2)cc1" has what Potency?
Reply: 612 mg/kg/day

----------
# Test system: rat chronic carcinogenicity bioassay, TD50
# TEST: DSSTox (CPDBAS) Carcinogenic Potency Database Summary Rat Bioassay Results
# CONDITION SET: TD50_Rat_Note: TD50 is harmonic mean of more than one positive test; TargetSites_Rat_Female: kidney; liver; stronger effect = lower value
Give Potency for every item shown.

O=NN(CCO)C(=O)NCCCl	0.356 mg/kg/day

Now consider the entry below.
Ask: Suppose we examine the compound "O=P(OC(CCl)CCl)(OC(CCl)CCl)OC(CCl)CCl" ; what Potency value has been reported?
Reply: 46.4 mg/kg/day
